IC50 reference
Tested on: 454973-116-R2-J3-PDC spheroids, viability, % test/control;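 note: spheroids exposed to compounds for seven days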
Assay: Anticancer human tumor 454973-116-R2-J3-PDC patient-derived pancreatic carcinoma cell line growth inhibition [GQUAD]
Settings: curve of first compound; second compound 0.316 µM; spheroids with HUVEC and MSC

{"columns": ["Compound", "Units Symbol", "Bound Operator", "IC50"],
 "data": [
  ["C=CCn1c(=O)c2cnc(Nc3ccc(N4CCN(C)CC4)cc3)nc2n1-c1cccc(C(C)(C)O)n1 + CN(C)c1ccc(Nc2c3ccc(NC(=O)CCN4CCCC4)cc3nc3cc(NC(=O)CCN4CCCC4)ccc23)cc1", "nM", "=", 399],
  ["Cc1[nH]c2ccccc2c1CCNCc1ccc(/C=C/C(=O)NO)cc1 + Cc1cnc(CNC(=O)c2c(=O)c3ccc(N4CCCN(C)CC4)nc3n3c2sc2ccccc23)cn1", "nM", "=", 50.5],
  ["O=C(c1cc(Cc2n[nH]c(=O)c3ccccc23)ccc1F)N1CCN(C(=O)C2CC2)CC1 + Cc1cnc(CNC(=O)c2c(=O)c3ccc(N4CCCN(C)CC4)nc3n3c2sc2ccccc23)cn1", "nM", "=", 6210],
  ["Nc1ccn(C2OC(CO)C(O)C2(F)F)c(=O)n1 (stereo unspecified) + Cc1[nH]c2ccc(F)cc2c1-c1nc2c3cccnc3c3ncccc3c2[nH]1", "nM", "<", 31.6],
  ["CC1COCCN1c1cc(-c2ccnn2C)c2ccnc(-c3ccn[nH]3)c2n1 (stereo unspecified) + CN(C)c1ccc(Nc2c3ccc(NC(=O)CCN4CCCC4)cc3nc3cc(NC(=O)CCN4CCCC4)ccc23)cc1", "nM", "=", 190],
  ["C#Cc1c(F)ccc2cc(O)cc(-c3ncc4c(N5CC6CCC(C5)N6)nc(OCC56CCCN5CC(F)C6)nc4c3F)c12 (stereo unspecified) + Cc1[nH]c2ccc(F)cc2c1-c1nc2c3cccnc3c3ncccc3c2[nH]1", "nM", "=", 56.2],
  ["Nc1ccn(C2OC(CO)C(O)C2(F)F)c(=O)n1 (stereo unspecified) + CN(C)c1ccc(Nc2c3ccc(NC(=O)CCN4CCCC4)cc3nc3cc(NC(=O)CCN4CCCC4)ccc23)cc1", "nM", "<", 31.6],
  ["C=CC(=O)N1CCN(c2nc(=O)n(-c3c(C)ccnc3C(C)C)c3nc(-c4c(O)cccc4F)c(F)cc23)C(C)C1 (stereo unspecified) + Cc1[nH]c2ccc(F)cc2c1-c1nc2c3cccnc3c3ncccc3c2[nH]1", "nM", ">", 10000],
  ["COc1cccc2c1C(=O)c1c(O)c3c(c(O)c1C2=O)CC(O)(C(=O)CO)CC3OC1CC(N)C(O)C(C)O1 (stereo unspecified) + CN(C)c1ccc(Nc2c3ccc(NC(=O)CCN4CCCC4)cc3nc3cc(NC(=O)CCN4CCCC4)ccc23)cc1", "nM", "=", 255],
  ["O=C(c1cc(Cc2n[nH]c(=O)c3ccccc23)ccc1F)N1CCN(C(=O)C2CC2)CC1 + CN(C)c1ccc(Nc2c3ccc(NC(=O)CCN4CCCC4)cc3nc3cc(NC(=O)CCN4CCCC4)ccc23)cc1", "nM", ">", 10000],
  ["CC(C)(O)C1CCC(Nc2ccc3ncc(-c4cccc(C(F)(F)F)c4)n3n2)CC1 (stereo unspecified) + Cc1cnc(CNC(=O)c2c(=O)c3ccc(N4CCCN(C)CC4)nc3n3c2sc2ccccc23)cn1", "nM", "=", 1630]
]}

Origin of the recorded values: PubChem BioAssay AID2060508
